# credit: PubChem BioAssay (NCI)

# System: HCC-2998 colon
# Experiment description: NCI-60 one-dose screen, 48 h
# Experimental context: 10 µM unless noted
About 83,000 compounds went through this panel and 20% of them were active in at least one assay; those are over-represented in the sample as a whole. The source made the active and inactive calls. How the source made its calls: active means growth percent below 10; inactive means the rest.
Pick from active, inactive when you respond.

QUERY: Could you check what this test reported for `C[C@H]1[C@H]2[C@H]3CC[C@@H]4[C@@]5(C)CC[C@H](O)C(C)(C)[C@@H]5CC[C@@]4(C)[C@]3(C)CC[C@]23CO[C@]1(C)[C@@H](C(=O)/C=C\c1cccnc1)C3` ?
RESULT: inactive

QUERY: Could you check what this test reported for `COc1c(B(O)O)cc(F)cc1-c1nc2ccc3[nH]ncc3c2c2c1CCCC2` ?
RESULT: active

QUERY: Could you check what this test reported for COc1ccc(C2C(N)=NNC2c2cccc(O)c2)cc1 (stereo unspecified) ?
RESULT: inactive

QUERY: Could you check what this test reported for `COc1ccc2c(c1)/C(=C/c1sc(=S)n(Cc3ccco3)c1O)C=N2` ?
RESULT: inactive

QUERY: Could you check what this test reported for `N/C(=N\c1nc2ccccc2s1)NC(=O)Nc1cccc2ccccc12` ?
RESULT: inactive

QUERY: Could you check what this test reported for `COc1ccc(-c2conc2-c2ccccc2)cc1` ?
RESULT: inactive

----------
Can you tell me growth for the items I'm about to list?
# Test system: ACHN renal
# Experiment description: NCI-60 one-dose screen, 48 h (100 = growth as untreated, 0 = no growth, -100 = all killed)
# Experimental context: 10 µM unless noted
About 83,000 compounds went through this panel and 20% of them were active in at least one assay; those are over-represented in the sample as a whole.
// note: answer is a bare numeric in %

QUERY: Identify measured growth corresponding to `CCC(=O)Nc1ccc(-c2nc(-c3cccc(OC)c3)c(-c3ccnc(Br)c3)[nH]2)cc1`
RESULT: 60.3

QUERY: Identify measured growth corresponding to `O=c1n(Cc2ccc3ccccc3c2)ccn1Cc1ccc2ccccc2c1`
RESULT: 74.3

QUERY: Identify measured growth corresponding to `CCOC(=O)Cn1c(C)c(/C=N/NC(=O)c2cc3c(ccc4ccccc43)o2)c2ccccc21`
RESULT: 28.4

QUERY: Identify measured growth corresponding to `Nc1nc(Cl)cc(=O)n1Cc1ccccc1`
RESULT: 107

QUERY: Identify measured growth corresponding to CN(C)CCN1CCN(c2ncccc2C2Nc3ccccc3-n3cccc32)CC1 (stereo not given)
RESULT: 105

----------
# System: SK-MEL-28 melanoma
# Experiment description: NCI-60 one-dose screen, 48 h (100 = growth as untreated, 0 = no growth, -100 = all killed)
# Experimental context: 10 µM unless noted
This is part of a sample that, as a whole, favours compounds with a hit. Of some 83,000 tested, about 20% had one in any assay.
Assay metric: growth (%)
// note: answer is a bare numeric in %

QUERY: Fill in: growth on SK-MEL-28 melanoma, entry `O=C(Nc1ccc(Cl)cc1F)c1cc(Cl)ccc1O`
RESULT: -3.71

QUERY: Fill in: growth on SK-MEL-28 melanoma, entry CCCCCCCCCCCCCCCCCC1OCC(COC(=O)O[C@]2(CC)C(=O)OCc3c2cc2n(c3=O)Cc3cc4ccccc4nc3-2)O1 (some centres undefined)
RESULT: 111

QUERY: Fill in: growth on SK-MEL-28 melanoma, entry `COc1cccc2c(=O)c3c(sc12)c(NCCCN)nc1ccccc13`
RESULT: 91.4

QUERY: Fill in: growth on SK-MEL-28 melanoma, entry `NCCCNc1nc2ccccc2c2c(=O)c3cccc(F)c3sc12`
RESULT: 85.1

QUERY: Fill in: growth on SK-MEL-28 melanoma, entry `CC(=O)Oc1ccccc1C(=O)N=C1[Se]CCCN1C(=O)c1ccccc1OC(C)=O`
RESULT: 18.5

QUERY: Fill in: growth on SK-MEL-28 melanoma, entry `O=c1cc(SCc2ccccc2)nc[nH]1`
RESULT: 133

QUERY: Fill in: growth on SK-MEL-28 melanoma, entry `O=C(O)c1cn(C2CC2)c2cc(N3CCN(C(=O)Nc4nc(-c5ccccc5)cs4)CC3)c(F)cc2c1=O`
RESULT: 52.9

QUERY: Fill in: growth on SK-MEL-28 melanoma, entry `COc1ccc(NC(=O)n2nc(/C=C\c3ccc(O)c(OC)c3)cc2/C=C\c2ccc(O)c(OC)c2)cc1`
RESULT: 34.5

QUERY: Fill in: growth on SK-MEL-28 melanoma, entry CCN1C(=O)N(CC)C2Nn3c(s/c(=C4\C(=O)N(CCC(C)C)c5ccccc54)c3=O)=NC21 (centres undefined)
RESULT: 78.6

QUERY: Fill in: growth on SK-MEL-28 melanoma, entry `CCOC(=O)/C=C1\S/C(=N\Nc2ccc([N+](=O)[O-])cc2[N+](=O)[O-])N(Cc2ccccc2)C1=O`
RESULT: 98.6

QUERY: Fill in: growth on SK-MEL-28 melanoma, entry `COc1cc(CCC[P+](c2ccccc2)(c2ccccc2)c2ccccc2)c(OC)c2c1OCO2`
RESULT: 32.1

QUERY: Fill in: growth on SK-MEL-28 melanoma, entry `CCCCn1c(-c2ccc(-c3nc(-c4ccc(Cl)cc4)no3)cc2)nc(-c2ccccc2)c1-c1ccccc1`
RESULT: 90.8

QUERY: Fill in: growth on SK-MEL-28 melanoma, entry `NC(=O)Nc1ccc2ncnc(Nc3ccc(Cl)cc3)c2c1`
RESULT: 106

QUERY: Fill in: growth on SK-MEL-28 melanoma, entry `COc1ccc(-c2conc2-c2ccccc2)cc1`
RESULT: 55.3

QUERY: Fill in: growth on SK-MEL-28 melanoma, entry `O=C(N/N=C/c1c(Cl)cccc1Cl)c1ccc(C(F)(F)F)nc1Nc1cccc(C(F)(F)F)c1`
RESULT: 36.6

QUERY: Fill in: growth on SK-MEL-28 melanoma, entry `CNCCCNc1nc2ccccc2c2c(=O)c3cc(F)ccc3sc12`
RESULT: 50.1

QUERY: Fill in: growth on SK-MEL-28 melanoma, entry `O=c1ccn(Cc2cn(-c3c4ccccc4nc4ccccc34)nn2)c(=O)[nH]1`
RESULT: 102

QUERY: Fill in: growth on SK-MEL-28 melanoma, entry `COc1ccc2sc3c(NCCCNCCO)nc4ccccc4c3c(=O)c2c1`
RESULT: 70.6

QUERY: Fill in: growth on SK-MEL-28 melanoma, entry `Cc1cccc(NC2=C(Cl)C(=O)c3nc(C)ccc3C2=O)c1`
RESULT: -54.5

QUERY: Fill in: growth on SK-MEL-28 melanoma, entry `COc1ccc(-c2[nH]c3ccc(OC)cc3c2/C=C(\C#N)S(=O)(=O)c2ccccc2)cc1`
RESULT: 43.2

QUERY: Fill in: growth on SK-MEL-28 melanoma, entry `COc1ccc(-c2cnc3ccccc3n2)cc1`
RESULT: 104

QUERY: Fill in: growth on SK-MEL-28 melanoma, entry c1cc2nc(-c3cn[nH]c3)c3c(c2cc1-c1cn[nH]c1)C1CCC3C1 (centres undefined)
RESULT: 73.7

QUERY: Fill in: growth on SK-MEL-28 melanoma, entry `COc1cc2cc(Oc3ccc(NC(=O)Nc4cccc(C(F)(F)F)c4)cc3)c(C)nc2cc1OCCN1CCOCC1`
RESULT: 68.8

QUERY: Fill in: growth on SK-MEL-28 melanoma, entry COC(=O)C(Cc1ccccc1)NC(=O)NC(=O)NC(=O)CI (centres undefined)
RESULT: 51.8

QUERY: Fill in: growth on SK-MEL-28 melanoma, entry `COc1cc(/C=C/c2c(C(C)=O)c(C)nc3ccccc23)cc(OC)c1OC`
RESULT: 53.9

QUERY: Fill in: growth on SK-MEL-28 melanoma, entry `CC(=O)O.CN1[CH-]N(Cc2ccc(C#N)cc2)c2ccccc21.[Ag+]`
RESULT: 95.3

QUERY: Fill in: growth on SK-MEL-28 melanoma, entry `CCOC(=O)c1[nH]c(C)c(C(=O)OCc2ccccc2C#N)c1C`
RESULT: 87.1

QUERY: Fill in: growth on SK-MEL-28 melanoma, entry `O=C(CCc1nnc(-c2c(Cl)cccc2Cl)o1)c1nc2ccccc2[nH]1`
RESULT: 82.7

QUERY: Fill in: growth on SK-MEL-28 melanoma, entry `O=C(Oc1cccc2ccccc12)Oc1cccc2ccccc12`
RESULT: 118
